test: modulators of yeast start codon fidelity, primary screen, whole organism, S. cerevisiae, single point, plate reader (AID 602363);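 note: firefly luciferase made from a UUG start codon reports start codon fidelity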; details: S. cerevisiae UUG-firefly luciferase reporter, luminescence/redox ratio; at 18.7 µM; hits give high values
Out of some 350,000 compounds screened, about 450 (0.13%) were called active. The full list was thinned out, with actives kept by preference.

# molecule, activity score, %
records = [
    ("N#C[C@@H]1[C@H](c2ccc(C#Cc3cccc(F)c3)cc2)[C@@H](CO)N1C(=O)C1CCCC1", -38.1),
    ("CC(C)NC(=O)Nc1ccc2c(c1)C(=O)N([C@@H](C)CO)C[C@H](C)[C@@H](CN(C)C(=O)Nc1ccc(F)cc1)OCCCC[C@H](C)O2", -6.2),
    ("CCOCN(C(=O)Cn1c(C(C)O)nc2ccccc21)c1c(C)cccc1CC (stereo not drawn)", -13.4),
    ("Cc1noc(C)c1NC(=O)Nc1ccc2c(c1)C(=O)N([C@H](C)CO)C[C@H](C)[C@@H](CN(C)Cc1ccc3c(c1)OCO3)OCCCC[C@@H](C)O2", -5.08),
    ("CO[C@H]1CN(C)C(=O)c2cc(NC(=O)Nc3cccc(F)c3)ccc2OC[C@H](C)N(C(C)=O)C[C@H]1C", 2.41),
    ("COc1ccc(NC(=O)N(C)C[C@@H]2Oc3ccc(NC(=O)Cn4cnnn4)cc3C(=O)N([C@H](C)CO)C[C@@H]2C)cc1", 2.52),
    ("C[C@@H]1CN([C@@H](C)CO)C(=O)c2cc(NS(=O)(=O)c3cccs3)ccc2O[C@@H]1CN(C)S(=O)(=O)c1ccc(F)cc1", 2.8),
    ("O=C1N=C(N2CCc3ccccc3C2)S/C1=C\\c1ccc(O)cc1", 376),
]

====

Recorded activity score, one value per entry.
experiment: modulators of yeast start codon fidelity, primary screen, whole organism, S. cerevisiae, single point, plate reader (AID 602363);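 note: firefly luciferase made from a UUG start codon reports start codon fidelity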; conditions: S. cerevisiae UUG-firefly luciferase reporter, luminescence/redox ratio; at 18.7 µM; hits give high values
About 450 (0.13%) of roughly 350,000 compounds were called active. Only a selection was taken, and actives are over-represented in it overall.

# smiles-data, activity score (%)
measured = [
    ("Cc1ccc(S(=O)(=O)N(C)C[C@@H]2Oc3ccc(NC(=O)NC4CCCCC4)cc3C(=O)N([C@@H](C)CO)C[C@H]2C)cc1", -6.25),
    ("COc1ccc(NC(=O)N(C)C[C@H]2OCCCC[C@@H](C)Oc3ccc(NC(=O)NC4CCCCC4)cc3C(=O)N([C@H](C)CO)C[C@H]2C)cc1", 21.6),
    ("C[C@@H]1CN([C@@H](C)CO)C(=O)c2cc(-c3cccnc3)cnc2O[C@@H]1CN(C)C(=O)C1CC1", -5.34),
    ("CCCc1cn(CC[C@@H]2CC[C@@H](NS(=O)(=O)c3ccccc3Cl)[C@@H](CO)O2)nn1", -13.1),
    ("COc1ccc(NC(=O)N(C)C[C@H]2OCCCC[C@@H](C)Oc3ccc(NC(=O)NC4CCCCC4)cc3C(=O)N([C@@H](C)CO)C[C@H]2C)cc1", 107),
    ("C[C@H]1CN([C@@H](C)CO)C(=O)Cc2cc(NC(=O)Nc3ccccc3)ccc2O[C@H]1CN(C)S(=O)(=O)c1cn(C)cn1", 2.53),
    ("COc1ccc(NC(=O)N(C)C[C@@H]2OCCCC[C@@H](C)Oc3ccc(NC(=O)NC4CCCCC4)cc3C(=O)N([C@H](C)CO)C[C@@H]2C)cc1", 2.02),
    ("CC(=O)N1CC(=O)N(CC(=O)Nc2ccc(Br)cc2)C1=S", 120),
    ("C[C@@H]1CCCCO[C@H](CN(C)S(=O)(=O)c2cccs2)[C@@H](C)CN([C@@H](C)CO)C(=O)c2cc(NC(=O)NC3CCCCC3)ccc2O1", -8.53),
    ("C[C@H]1CN([C@@H](C)CO)C(=O)Cc2cc(NS(=O)(=O)c3ccc(Cl)cc3)ccc2O[C@H]1CN(C)S(C)(=O)=O", -4.94),
    ("C[C@H](CO)N1C[C@H](C)[C@@H](CN(C)C)Oc2c(NC(=O)Nc3ccc(F)cc3)cccc2C1=O", 17.5),
]
